B1: library; a variant is named by its letters at N, in order (parent)
chain: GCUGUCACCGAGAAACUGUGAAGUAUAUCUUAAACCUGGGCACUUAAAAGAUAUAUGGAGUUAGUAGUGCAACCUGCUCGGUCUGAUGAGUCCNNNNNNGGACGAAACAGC

# Variants of: B1
# assay explanation: normalized RNA/DNA level without ligand (relative to sTRSVctl = 100) (log10 (% of sTRSVctl)); HEK293T; ligand: cyclic di-GMP (c-di-GMP-II aptamer); higher = less ribozyme self-cleavage, higher mRNA level
# condition info: reporter: mCherry (pCS4076), ligand present: no
Listed here are variants together with their documented normalized RNA/DNA level without ligand (log10).
Just the number, please.

Sample records with normalized RNA/DNA level without ligand (log10):
Bench note: what normalized RNA/DNA level without ligand (log10) did GCUGUCACCGAGAAACUGUGAAGUAUAUCUUAAACCUGGGCACUUAAAAGAUAUAUGGAGUUAGUAGUGCAACCUGCUCGGUCUGAUGAGUCCGGUGUCGGACGAAACAGC show?
1.66

Item: GCUGUCACCGAGAAACUGUGAAGUAUAUCUUAAACCUGGGCACUUAAAAGAUAUAUGGAGUUAGUAGUGCAACCUGCUCGGUCUGAUGAGUCCUGGGGUGGACGAAACAGC
1.63

Item: GCUGUCACCGAGAAACUGUGAAGUAUAUCUUAAACCUGGGCACUUAAAAGAUAUAUGGAGUUAGUAGUGCAACCUGCUCGGUCUGAUGAGUCCACCAAAGGACGAAACAGC
1.49

Item: GCUGUCACCGAGAAACUGUGAAGUAUAUCUUAAACCUGGGCACUUAAAAGAUAUAUGGAGUUAGUAGUGCAACCUGCUCGGUCUGAUGAGUCCUGGAACGGACGAAACAGC
1.64

Item: GCUGUCACCGAGAAACUGUGAAGUAUAUCUUAAACCUGGGCACUUAAAAGAUAUAUGGAGUUAGUAGUGCAACCUGCUCGGUCUGAUGAGUCCACUGGCGGACGAAACAGC
1.61

Further cases:
Bench note: what normalized RNA/DNA level without ligand (log10) did GCUGUCACCGAGAAACUGUGAAGUAUAUCUUAAACCUGGGCACUUAAAAGAUAUAUGGAGUUAGUAGUGCAACCUGCUCGGUCUGAUGAGUCCUGCAGUGGACGAAACAGC show?
1.66
